// values below are reported Kd
measuredOn: Human rhB7-H3 (human) (UniProt Q5ZPR3)
test: SPR (Biacore 8K/T200), purified IgG as ligand, rhB7-H3 as analyte
Provide only the numeric value, understood in nM.

Guide cases for Kd, answers given:
binder	unitDescriptor	Kd
MIL33B-H1-hIgG1 (antibody, V domains shown) VH: QVQLVQSGAEVKKPGASVKVSCKASGYTFTSYVMHWVRQAPGQRLEWMGYINSYSDGTKYNEKFKGRVTITSDTSASTAYMELSSLRSEDTAVYYCARWGGLGNGAMDYWGQGTLVTVSS VL: EIVLTQSPATLSLSPGERATLSCSVSSSVNYMHWYQQKPGQAPRRLIYDTSKLASGIPARFSGSGSGTDYTLTISSLEPEDFAVYYCQQWTSNPLTFGQGTKLEIK	nM	0.233
MIL33B-H3-hIgG1 (antibody, V domains shown) VH: QVQLVQSGAEVKKPGASVKVSCKASGYTFTSYVMHWVRQAPGQRLEWMGYINSYSDGTKYNEKFKGRVTITRDTSASTAYMELSSLRSEDTAVYYCARWGGLGNGAMDYWGQGTLVTVSS VL: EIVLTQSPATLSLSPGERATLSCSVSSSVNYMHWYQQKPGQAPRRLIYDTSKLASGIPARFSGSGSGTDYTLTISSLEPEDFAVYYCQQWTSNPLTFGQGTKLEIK	nM	0.243
MIL33B-H2-hIgG1 (antibody, V domains shown) VH: QVQLVQSGAEVKKPGASVKVSCKASGYTFTSYVMHWVRQAPGQRLEWMGYINSYSDGTKYNEKFKGRATITRDTSASTAYMELSSLRSEDTAVYYCARWGGLGNGAMDYWGQGTLVTVSS VL: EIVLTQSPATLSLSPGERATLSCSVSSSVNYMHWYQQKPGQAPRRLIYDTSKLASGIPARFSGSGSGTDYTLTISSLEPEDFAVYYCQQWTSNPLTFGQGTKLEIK	nM	0.226

# context switch: different binder, same Kd
Indicate the recorded Kd value for this binder: MIL33B chimeric antibody (full-length IgG) (antibody, V domains shown) VH: EVQLQQSGPELVKPGASVKMSCKASGYTFTSYVMHWVRQSPGQGLEGIGYINSYSDGTKYNEKFKGKATLTSDKSSSTAYMELSGLTSEDSAVYYCARWGGLGNGAMDYWGQGTSVTVSS VL: QIVLTQSPAIMSASPGEKVTMTCSVSSSVNYMHWYQQKSGTSPKRWIYDTSKLASGVPARFSASGSGTSYSLTISSMEAEDAATYYCQQWTSNPLTFGAGTKLELKR
0.148
